Assay Target: T1, RBFOX1 RRM RbFoxmut (Fox-RRM*) (Homo sapiens, UniProt Q9NWB1 109-208, R118D;E147R;N151S;E152T)
T1 sequence: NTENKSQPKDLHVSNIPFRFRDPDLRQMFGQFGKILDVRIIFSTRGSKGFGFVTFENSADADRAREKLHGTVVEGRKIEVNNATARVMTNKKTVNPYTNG
Protocol Summary: EMSA; HiTS-Eq, 1 nM pool, 10 min; buffer printed only for the single-RNA assays: 10 mM Tris pH 7.5, 150 mM NaCl, 3.4 mM EDTA, 0.001% NP-40, 30 C
Condition Details: tags: His6 N-terminal (pET28a); label: 5' 32P
The full ranking holds about 16,000 sequences; the median of “ka relative to ugcaugu” is about 0.096, and the highest 2% start at about 0.35. This excerpt belongs to a sample that is enriched for the highest values.
Assay Metric: binding signal

Consider the binder GGAAUGA (DNA:RNA) RNA: GGGAGACCGGAAUUCAGAUUGUCCGGAAUGAUUAAAUCCCGUCGUAGCCACCA DNA 1: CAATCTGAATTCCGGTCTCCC DNA 2: TGGTGGCTACGACGGGATT and give its measured binding signal.
0.772 KA relative to UGCAUGU

Param item = GACCGAA (DNA:RNA) RNA: GGGAGACCGGAAUUCAGAUUGUCCGACCGAAUUAAAUCCCGUCGUAGCCACCA DNA 1: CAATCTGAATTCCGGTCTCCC DNA 2: TGGTGGCTACGACGGGATT ; retrieve measured binding signal.
0.0991 KA relative to UGCAUGU

# get_value(readout='binding signal', item= GAAUGCC (DNA:RNA) RNA: GGGAGACCGGAAUUCAGAUUGUCCGAAUGCCUUAAAUCCCGUCGUAGCCACCA DNA 1: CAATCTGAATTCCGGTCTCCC DNA 2: TGGTGGCTACGACGGGATT )
0.356 KA relative to UGCAUGU

Item GAAUGAU (DNA:RNA) RNA: GGGAGACCGGAAUUCAGAUUGUCCGAAUGAUUUAAAUCCCGUCGUAGCCACCA DNA 1: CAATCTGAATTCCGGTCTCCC DNA 2: TGGTGGCTACGACGGGATT has what recorded binding signal?
0.641 KA relative to UGCAUGU

For GUAAUGA (DNA:RNA) RNA: GGGAGACCGGAAUUCAGAUUGUCCGUAAUGAUUAAAUCCCGUCGUAGCCACCA DNA 1: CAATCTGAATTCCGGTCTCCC DNA 2: TGGTGGCTACGACGGGATT , what is its reported binding signal?
0.121 KA relative to UGCAUGU

I would be grateful if you could share the reported binding signal for GAAUUGA (DNA:RNA) RNA: GGGAGACCGGAAUUCAGAUUGUCCGAAUUGAUUAAAUCCCGUCGUAGCCACCA DNA 1: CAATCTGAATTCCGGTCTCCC DNA 2: TGGTGGCTACGACGGGATT .
0.129 KA relative to UGCAUGU

For the binder CGAUGCG (DNA:RNA) RNA: GGGAGACCGGAAUUCAGAUUGUCCCGAUGCGUUAAAUCCCGUCGUAGCCACCA DNA 1: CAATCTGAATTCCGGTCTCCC DNA 2: TGGTGGCTACGACGGGATT , what binding signal is on record?
0.113 KA relative to UGCAUGU

Need binding signal of CGUCCCU (DNA:RNA) RNA: GGGAGACCGGAAUUCAGAUUGUCCCGUCCCUUUAAAUCCCGUCGUAGCCACCA DNA 1: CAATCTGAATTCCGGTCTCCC DNA 2: TGGTGGCTACGACGGGATT , thanks.
0.0565 KA relative to UGCAUGU

Give the measured binding signal of AAGCAAG (DNA:RNA) RNA: GGGAGACCGGAAUUCAGAUUGUCCAAGCAAGUUAAAUCCCGUCGUAGCCACCA DNA 1: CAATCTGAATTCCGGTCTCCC DNA 2: TGGTGGCTACGACGGGATT .
0.103 KA relative to UGCAUGU

Which binding signal value is on record for AGCGCCG (DNA:RNA) RNA: GGGAGACCGGAAUUCAGAUUGUCCAGCGCCGUUAAAUCCCGUCGUAGCCACCA DNA 1: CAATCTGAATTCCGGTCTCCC DNA 2: TGGTGGCTACGACGGGATT ?
0.116 KA relative to UGCAUGU

GET /values?readout=binding signal&item= UGUGUGA (DNA:RNA) RNA: GGGAGACCGGAAUUCAGAUUGUCCUGUGUGAUUAAAUCCCGUCGUAGCCACCA DNA 1: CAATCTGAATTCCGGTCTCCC DNA 2: TGGTGGCTACGACGGGATT
0.209 KA relative to UGCAUGU
